These data points were gathered from patent US20120231006A1.

- TARGET ENTITY: T1, hOrai1-mOrai1 ECL2 (SKPPA) protein (human/mouse chimera, UniProt Q96D31 1-301)
- T1 construct: also called Ch
- T1 sequence (Q96D31 other isoform, or with tags, fused parts or gaps): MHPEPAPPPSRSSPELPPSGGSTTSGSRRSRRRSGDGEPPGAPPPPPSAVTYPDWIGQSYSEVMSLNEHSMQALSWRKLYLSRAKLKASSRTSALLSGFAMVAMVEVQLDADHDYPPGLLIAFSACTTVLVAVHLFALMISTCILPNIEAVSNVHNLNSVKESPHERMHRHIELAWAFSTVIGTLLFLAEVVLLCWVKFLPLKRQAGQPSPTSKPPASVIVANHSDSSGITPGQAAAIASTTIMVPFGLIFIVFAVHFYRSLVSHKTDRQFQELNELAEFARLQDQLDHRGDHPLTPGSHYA
- TEST PROTOCOL: FACS, 293EBNA, RFI-POC grade
- Design: concentration or dose not given beside the values
QUANTITY: percent of control (POC) of FACS Geo Mean

Note percent of control (POC) of FACS Geo Mean for the binder shown: mAb 5F2.1 (antibody, human IgG2, lambda, V domains shown, fully human IgG2 lambda, Campaign 2) VH: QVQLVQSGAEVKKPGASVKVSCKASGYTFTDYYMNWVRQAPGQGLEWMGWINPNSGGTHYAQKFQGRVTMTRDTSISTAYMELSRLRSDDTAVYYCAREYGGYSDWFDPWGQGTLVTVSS VL: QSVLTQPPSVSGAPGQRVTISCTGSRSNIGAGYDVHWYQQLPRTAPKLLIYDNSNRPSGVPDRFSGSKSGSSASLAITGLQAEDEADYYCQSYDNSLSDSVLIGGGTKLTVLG
40 to 100%

Supply percent of control (POC) of FACS Geo Mean value. Item: mAb 5B5.2 (antibody, human IgG2, lambda, V domains shown, fully human IgG2 lambda, Campaign 2; same chains as 5B5.1) VH: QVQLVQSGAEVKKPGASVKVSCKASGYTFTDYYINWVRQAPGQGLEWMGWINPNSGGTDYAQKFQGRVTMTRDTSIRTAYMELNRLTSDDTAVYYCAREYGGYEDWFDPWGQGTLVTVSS VL: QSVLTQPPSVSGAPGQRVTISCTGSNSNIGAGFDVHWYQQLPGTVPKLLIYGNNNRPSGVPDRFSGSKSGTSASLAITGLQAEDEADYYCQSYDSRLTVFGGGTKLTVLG
5 to 40%

Could you please provide reported percent of control (POC) of FACS Geo Mean for mAb 2D2.1 (antibody, human IgG2, lambda, V domains shown, fully human IgG2 lambda, Campaign 1; also called mAb 2D.1) VH: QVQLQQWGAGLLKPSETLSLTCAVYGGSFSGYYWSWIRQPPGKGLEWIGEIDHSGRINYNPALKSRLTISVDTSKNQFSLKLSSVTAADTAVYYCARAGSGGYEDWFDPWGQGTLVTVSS VL: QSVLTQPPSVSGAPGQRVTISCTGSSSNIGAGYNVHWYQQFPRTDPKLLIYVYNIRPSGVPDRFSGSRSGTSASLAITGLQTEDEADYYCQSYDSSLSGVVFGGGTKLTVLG ? Thanks!
5 to 40%
